test system: P388 leukemia ip, CD2F1 mice, survival T/C; test: NCI In Vivo Anticancer Drug Screen. Data for tumor model P388 Leukemia (intraperitoneal) in CD2F1 (CDF1) mice; conditions: endpoint: median survival time; dose: 60.0 mg/kg/injection; schedule: Q01DX005 (ip); vehicle: saline with Tween-80; higher = longer survival
Toxic doses and inconclusive results are not listed.
Reported property: T/C

Below, each entry is followed by its recorded T/C result.
- Compound: "CC(C)(C)/[N+]([O-])=C/C1(C2(/C=[N+](\\[O-])C(C)(C)C)Cc3ccccc3C2=O)Cc2ccccc2C1=O (stereo not given)"
  Reported property: "T/C"
  Result: "101 % of control"
- Compound: "Cn1nc(-c2ccccc2)c(-c2cc(-c3ccccc3)n[nH]2)c(N)c1=O"
  Reported property: "T/C"
  Result: "87 % of control"
- Compound: "COc1ccc(C2c3cc4c(cc3OC3(O)CCCC(=O)C23)OCO4)cc1 (stereo not given)"
  Reported property: "T/C"
  Result: "100 % of control"
- Compound: "CN(C)c1ccc(/C=N/NC(=O)CC2CCCCC2)cc1"
  Reported property: "T/C"
  Result: "100 % of control"

The compound identified as `CN(C)CCOC(=O)C(C)(C)Sc1ccc(Cl)cc1` registered its T/C at 107 % of control

----------
test system: P388 leukemia ip, CD2F1 mice, survival T/C; test: NCI In Vivo Anticancer Drug Screen. Data for tumor model P388 Leukemia (intraperitoneal) in CD2F1 (CDF1) mice; conditions: endpoint: median survival time; dose: 60.0 mg/kg/injection; schedule: Q01DX005 (ip); vehicle: Klucel (hydroxypropylcellulose) (HPC); higher = longer survival
Inconclusive results and toxic doses are left out.
Reported property: T/C

- Molecule: "O=c1c(Cc2ccccc2)c([O-])[n+](Cc2ccccc2)c(-c2ccccc2)n1-c1ccccc1"
  System name: "P388 leukemia ip, CD2F1 mice, survival T/C"
  T/C: "98 % of control"
- Molecule: "Cc1nn(-c2ccccc2)c2c1C(=O)CC(C)O2 (stereo not drawn)"
  System name: "P388 leukemia ip, CD2F1 mice, survival T/C"
  T/C: "93 % of control"

As a next step, examine the molecule that follows.
The molecule identified as CCCC(CC(=O)O)c1c2c(c(O)c3c1OC(C)C(C)C3=O)C=CC(C)(C)O2 (stereo not drawn) registered its T/C at 97 % of control

----------
system: P388 leukemia ip, CD2F1 mice, survival T/C; assay: NCI In Vivo Anticancer Drug Screen. Data for tumor model P388 Leukemia (intraperitoneal) in CD2F1 (CDF1) mice; conditions: endpoint: median survival time; dose: 100.0 mg/kg/injection; schedule: Q01DX005 (ip); vehicle: saline with Tween-80; higher = longer survival
Toxic doses and inconclusive results are not listed.
T/C: recorded values

- Compound: "COC(=O)Nc1ccc2c(c1)Cc1cc(NC(=O)OC)ccc1-2"
  System name: "P388 leukemia ip, CD2F1 mice, survival T/C"
  Reported property: "T/C"
  Result: "92 % of control"
- Compound: "O=C(Nc1ccccc1-c1ccccc1)C(=O)Nc1ccccc1-c1ccccc1"
  System name: "P388 leukemia ip, CD2F1 mice, survival T/C"
  Reported property: "T/C"
  Result: "89 % of control"
- Compound: "O=c1c2ccccc2ncn1Cc1ccco1"
  System name: "P388 leukemia ip, CD2F1 mice, survival T/C"
  Reported property: "T/C"
  Result: "98 % of control"
- Compound: "Cc1[nH]nc2c1NC(=O)OC(C)C2 (configuration not stated)"
  System name: "P388 leukemia ip, CD2F1 mice, survival T/C"
  Reported property: "T/C"
  Result: "101 % of control"
- Compound: "CCCCN1CC(=O)N2CCCC(c3ccccc3)N2C(=O)C1 (configuration not stated)"
  System name: "P388 leukemia ip, CD2F1 mice, survival T/C"
  Reported property: "T/C"
  Result: "105 % of control"
- Compound: "CC1(C)C(=NOCc2ccccc2)C(C)(C)C1=NOCc1ccccc1"
  System name: "P388 leukemia ip, CD2F1 mice, survival T/C"
  Reported property: "T/C"
  Result: "87 % of control"

As a next step, examine the compound that follows.
The compound identified as `Nc1nc2ccc(CO)nc2c(=O)[nH]1` registered its T/C at 106 % of control

----------
test system: P388 leukemia ip, CD2F1 mice, survival T/C; assay: NCI In Vivo Anticancer Drug Screen. Data for tumor model P388 Leukemia (intraperitoneal) in CD2F1 (CDF1) mice; settings: endpoint: median survival time; dose: 200.0 mg/kg/injection; schedule: Q04DX003 (ip); vehicle: saline; higher = longer survival
Inconclusive results and toxic doses are left out.
T/C: recorded values

Below, each entry is followed by its recorded T/C result.
- Molecule: "COc1nc(/C=C/c2ccccc2)c([N+](=O)[O-])c(OC)n1"
  System name: "P388 leukemia ip, CD2F1 mice, survival T/C"
  T/C: "103 % of control"
- Molecule: "CCOC(=O)Cc1nnc(N)s1"
  System name: "P388 leukemia ip, CD2F1 mice, survival T/C"
  T/C: "110 % of control"
- Molecule: "CCCCCCCC/C=C/CCCCCCCCCCCCBr"
  System name: "P388 leukemia ip, CD2F1 mice, survival T/C"
  T/C: "95 % of control"
- Molecule: "[Cl][Rh][Cl].[NH-]c1nc2c(ccc3ccccc32)s1.[NH-]c1nc2c(ccc3ccccc32)s1.[NH-]c1nc2c(ccc3ccccc32)s1.[NH-]c1nc2c(ccc3ccccc32)s1"
  System name: "P388 leukemia ip, CD2F1 mice, survival T/C"
  T/C: "109 % of control"
- Molecule: "CCOC(=O)NC(C)(C)CN(C(=O)OCC)C(C)(C)CO"
  System name: "P388 leukemia ip, CD2F1 mice, survival T/C"
  T/C: "109 % of control"
- Molecule: "O=C1CCC(C(=O)O)N1 (stereo unspecified)"
  System name: "P388 leukemia ip, CD2F1 mice, survival T/C"
  T/C: "97 % of control"

Form: item `O=C(c1ccccc1)c1c(-c2ccccc2)noc1-c1ccccc1` ; test system P388 leukemia ip, CD2F1 mice, survival T/C; T/C: 100 % of control

----------
test system: P388 leukemia ip, CD2F1 mice, survival T/C; assay: NCI In Vivo Anticancer Drug Screen. Data for tumor model P388 Leukemia (intraperitoneal) in CD2F1 (CDF1) mice; conditions: endpoint: median survival time; dose: 400.0 mg/kg/injection; schedule: Q01DX009 (ip); vehicle: other; higher = longer survival
Toxic doses and inconclusive results are not listed.
T/C: recorded values

Below, each entry is followed by its recorded T/C result.
- Molecule: "CCCCCCCCCCCSSCCCCCCCCCCC"
  Result: "104 % of control"
- Molecule: "COc1ccccc1N(CCCO)C(=S)Nc1ccccc1"
  Result: "111 % of control"
- Molecule: "CCOC(=O)C(CSC(c1ccccc1)(c1ccccc1)c1ccccc1)NC(=O)CCNC(=O)c1ccccc1 (stereo not given)"
  Result: "95 % of control"
- Molecule: "COc1ccc(CCNC(=O)c2ccc(OC)c(OCc3ccccc3)c2)cc1OC"
  Result: "90 % of control"

As a next step, examine the molecule that follows.
The molecule identified as COc1cc(CC2c3cc(OC)c(OC)cc3CCN2C)c(NC(=O)c2ccc(C(=O)Nc3cc(OC)c(OC)cc3CC3c4cc(OC)c(OC)cc4CCN3C)cc2)cc1OC (stereo not given) registered its T/C at 104 % of control

----------
Tested on: P388 leukemia ip, CD2F1 mice, survival T/C
Test: NCI In Vivo Anticancer Drug Screen. Data for tumor model P388 Leukemia (intraperitoneal) in CD2F1 (CDF1) mice
Conditions: endpoint: median survival time; dose: 50.0 mg/kg/injection; schedule: Q04DX003 (ip); vehicle: saline; higher = longer survival
Protocol: The antitumor activity of compounds was measured in mice bearing transplantable tumors. Survival or tumor size were measured and the results are expressed as the measurement made in the treated group (T) divided by the measurement made in the vehicle treated control group (C). The tumor model used in this assay is P388 Leukemia (intraperitoneal) in CD2F1 (CDF1) mice
Toxic doses and inconclusive results are not listed.
Reported property: T/C

Below, each entry is followed by its recorded T/C result.
- Compound: "O=c1ccn2ccccc2n1"
  Result: "91 % of control"
- Compound: "COC(=O)/C=C\\C(=O)O"
  Result: "100 % of control"

Form: item CC12CCC(=O)C=C1CCCC2=O (stereo not given) ; test system P388 leukemia ip, CD2F1 mice, survival T/C; T/C: 95 % of control

Form: item `CC1(C)N=C(N)N=C(N)N1c1ccc(OCc2ccc(C(=O)Nc3cccc(S(=O)(=O)F)c3)cc2)c(Cl)c1` ; test system P388 leukemia ip, CD2F1 mice, survival T/C; T/C: 181 % of control

Form: item `CCOC(=O)Cc1nnc(N)s1` ; test system P388 leukemia ip, CD2F1 mice, survival T/C; T/C: 94 % of control

Sourced from PubChem BioAssay AID330
